Data provenance: patent US7868046B2

- Tested on: human PMNs
- ASSAY NOTES: CXCL1 (GRO-α) induced human PMN chemotaxis inhibition
- Type: cell-based
- CONDITION PARAMETERS: Homo sapiens; hPMN chemotaxis, compound at 10^−8 M
MEASUREMENT TYPE: inhibition at 0.01 µM (%)
Give bare numbers, in %.

Study these solved cases before continuing.
                                   compound  units_symbol  reported_measurement
0  Cc1ccc(S(=O)(=O)Nc2ccc([C@@H](C)C(N)=O)cc2)cc1 [Compound 6]             %                    65
1  C[C@@H](C(N)=O)c1ccc(NS(=O)(=O)C2CCCC2)cc1 [Compound 12]             %                    67

Hi, could you look up inhibition at 0.01 µM for each item in my list?
1. CC(C)S(=O)(=O)Nc1ccc([C@@H](C)C(N)=O)cc1 [Compound 1]
2. C[C@@H](C(N)=O)c1ccc(NS(=O)(=O)c2ccc(C(F)(F)F)cc2)cc1 [Compound 10]
3. CC(C)S(=O)(=O)Nc1ccc([C@@H](C)C(=O)Nc2nc(C(F)(F)F)cs2)cc1 [Compound 16]

67
69
49

----------
Assignment: determine reported melting point for the given molecules.

Study these solved cases before continuing.
>>> df
                              line_notation  measurement_type  reported_measurement
0  C[C@@H](C(N)=O)c1ccc(NS(=O)(=O)c2ccc(C(F)(F)F)cc2)cc1     melting point         178 to 180 °C
1  C[C@@H](C(N)=O)c1ccc(NS(=O)(=O)c2ccc(Cl)cc2)cc1     melting point         150 to 153 °C
2  CC(C)S(=O)(=O)Nc1ccc([C@@H](C)C(N)=O)cc1     melting point         125 to 127 °C

Hi, could you look up melting point for each item in my list?
1. C[C@@H](C(N)=O)c1ccc(NS(=O)(=O)c2cccs2)cc1
2. Cc1ccc(S(=O)(=O)Nc2ccc([C@@H](C)C(N)=O)cc2)cc1

58 to 60 °C
138 to 140 °C

Hi, could you look up melting point for each item in my list?
1. COc1ccc(S(=O)(=O)Nc2ccc([C@@H](C)C(N)=O)cc2)cc1
2. C[C@@H](C(N)=O)c1ccc(NS(=O)(=O)Cc2ccccc2)cc1
3. C[C@@H](C(N)=O)c1ccc(NS(=O)(=O)c2ccccc2)cc1

1: 118 to 120 °C; 2: 68 to 70 °C; 3: 152 to 153 °C

----------
- Test system: human PMNs
- ASSAY NOTES: CXCL1 (GRO-α) induced human PMN chemotaxis inhibition
- Format: cell-based
- CONDITION PARAMETERS: Homo sapiens; hPMN chemotaxis, compound at 10^−8 M
MEASUREMENT TYPE: inhibition at 0.01 µM
The reply should consist of the numeric value with the unit placed after it.

                                   molecule       measurement_type  reported_measurement
0  C[C@@H](C(N)=O)c1ccc(NS(=O)(=O)c2ccccc2Cl)cc1 [Compound 2]  inhibition at 0.01 µM                   41%
1  C[C@@H](C(N)=O)c1ccc(NS(=O)(=O)Cc2ccccc2)cc1 [Compound 8]  inhibition at 0.01 µM                   58%
2  C[C@@H](C(N)=O)c1ccc(NS(=O)(=O)c2cccs2)cc1 [Compound 11]  inhibition at 0.01 µM                   50%
3  C[C@@H](C(N)=O)c1ccc(NS(C)(=O)=O)cc1 [Compound 4]  inhibition at 0.01 µM                   75%
4  C[C@@H](C(N)=O)c1ccc(NS(=O)(=O)c2ccccc2)cc1 [Compound 5]  inhibition at 0.01 µM                   44%
5  C[C@@H](C(N)=O)c1ccc(NS(=O)(=O)c2c(Cl)cccc2Cl)cc1 [Compound 3]  inhibition at 0.01 µM                   39%

Hi, could you look up inhibition at 0.01 µM for each item in my list?
1. C[C@@H](C(=O)NCCOCCO)c1ccc(NS(=O)(=O)c2ccccc2Cl)cc1 [Compound 18]
2. COc1ccc(S(=O)(=O)Nc2ccc([C@@H](C)C(N)=O)cc2)cc1 [Compound 7]
3. C[C@@H](C(N)=O)c1ccc(NS(=O)(=O)c2ccc(Cl)cc2)cc1 [Compound 9]
4. C[C@@H](C(=O)NC1CC1)c1ccc(NS(=O)(=O)c2ccccc2Cl)cc1 [Compound 19]
5. C[C@@H](C(N)=O)c1ccc(NS(=O)(=O)C(F)(F)F)cc1 [Compound 13]
6. C[C@@H](C(=O)Nc1nc(C(F)(F)F)cs1)c1ccc(NS(=O)(=O)c2ccccc2Cl)cc1 [Compound 17]

59%
71%
53%
60%
75%
40%

Name the recorded inhibition at 0.01 µM of the molecule listed here: CNC(=O)[C@H](C)c1ccc(NS(=O)(=O)C(C)C)cc1 [Compound 14]
64%
